test: qHTS assay to identify small molecule agonists of the constitutive androstane receptor (CAR) signaling pathway - cell viability counter screen (AID 1224836); conditions: HepG2-CYP2B6-hCAR viability, CellTiter-Fluor, 23 h, PK11195 added to every well; series mostly up to 92.4 µM; also: nearly all actives have a fitted effect of over 45% in size
Records with an inconclusive call do not appear. The source made the active and inactive calls. Calls follow the shape of the dose curve; as a rule, active = well fitted cell-killing curve with a large enough effect in the repeat runs; inconclusive = weak or mixed curves, or effect the other way; inactive = flat fitted curve, though single readings scatter.
Result category, one only: 1 (yes) for active, 0 (no) for inactive

Which outcome did this test record for the molecule CCN(CC)c1ccc(N)cc1 ?
1 (yes)

Which outcome did this test record for the molecule CCCCCCC(C)OC(=O)COc1nc(F)c(Cl)c(N)c1Cl (stereo not drawn) ?
0 (no)

Which outcome did this test record for the molecule O=Nc1ccc(NO)cc1 ?
0 (no)

---

assay: qHTS assay to identify small molecule antagonists of the vitamin D receptor (VDR) signaling pathway - cell viability counter screen (AID 743225); settings: VDR-bla HEK293T viability, CellTiter-Glo luminescence, 16 h; series mostly up to 61 µM; also: nearly all actives have a fitted effect of over 50% in size
Records with an inconclusive call do not appear. Activity calls are given as the source filed them. Calls follow the shape of the dose curve; as a rule, active = well fitted cell-killing curve with a large enough effect in the repeat runs; inconclusive = weak or mixed curves, or effect the other way; inactive = no such curve, though single readings can be large or run the other way.
Result category, one only: active, inactive

Which outcome did this test record for the compound NC(=O)c1ccccc1N ?
inactive

Which outcome did this test record for the compound COc1cccc(CCc2ccccc2OCC(CN(C)C)OC(=O)CCC(=O)O)c1 (stereo not drawn) ?
inactive

Which outcome did this test record for the compound SCCCCCCCCS ?
inactive

Which outcome did this test record for the compound CC1CCCNC1 (stereo not drawn) ?
inactive

Which outcome did this test record for the compound O=C1NC2CCCCN2C12CCN(CCCN1c3ccccc3CCc3ccc(Cl)cc31)CC2 (stereo not drawn) ?
active

Which outcome did this test record for the compound CCCCOc1ccc(C(=O)CCN2CCCCC2)cc1 ?
inactive

Which outcome did this test record for the compound CN(C)c1ccc(N=Nc2ccccc2C(=O)O)cc1 ?
inactive

Which outcome did this test record for the compound CC(CN(C)C)CN1c2ccccc2CCc2ccccc21 (stereo not drawn) ?
inactive

Which outcome did this test record for the compound CCCCCCCCCCCCCCNCCO ?
inactive

Which outcome did this test record for the compound CCC(=O)OCCc1ccccc1 ?
inactive

Which outcome did this test record for the compound CCCCCCCCCCCC(=O)N(CC)CC ?
inactive

Which outcome did this test record for the compound CC(=O)Oc1ccc(C2(c3ccc(OC(C)=O)cc3)C(=O)Nc3ccccc32)cc1 ?
inactive

Which outcome did this test record for the compound COCC(=O)O[C@]1(CCN(C)CCCc2nc3ccccc3[nH]2)CCc2cc(F)ccc2[C@@H]1C(C)C ?
active

---

Assay: A CellTox Green Cytotoxicity Assay to monitor cytotoxicity in HepG2 cells - 40 hour (AID 1224879); also: nearly all actives have a fitted effect of over 40% in size
Details: CellTox Green fluorescence; series mostly up to 76.8 µM
Description: National Center for Advancing Translational Sciences [NCATS] NIH Chemical Genomics Center [NCGC] U.S. Environmental Protection Agency [EPA] National Institutes of Environmental Health Sciences [NIEHS] National Toxicology Program [NTP] Cell-based models are critical for drug discovery. […] Viable cells produce no appreciable increases in fluorescence. Therefore, the fluorescence signal produced by the binding interaction with dead cell DNA is proportional to cytotoxicity. […]
Results filed as inconclusive are left out. Calls of active or inactive are those of the source. Calls come from the whole dose curve; as a rule, active = well fitted activation curve with a large enough effect in the repeat runs; inconclusive = weak or mixed curves; inactive = flat fitted curve, though single readings scatter.
Result category, one only: active, inactive

Which outcome did this test record for the compound CCN1CCN(c2cc(-c3ccc(F)cc3)c3c(n2)CCCCCC3)CC1 ?
active

Which outcome did this test record for the compound Cn1cccc1 ?
inactive

Which outcome did this test record for the compound O=C(O)Cc1ccc(OCCNC[C@H](O)c2ccccc2)cc1 ?
inactive

Which outcome did this test record for the compound Clc1ccc(C(Cn2ccnc2)OCc2ccsc2Cl)c(Cl)c1 (configuration not stated) ?
active

Which outcome did this test record for the compound C[C@@]12C(=O)OC(=O)[C@]1(C)C1CCC2O1 ?
active

Which outcome did this test record for the compound CCCCC(CC)COC(=O)c1ccc(O)cc1 (configuration not stated) ?
active

Which outcome did this test record for the compound Cc1cccc(C)n1 ?
inactive

---

test: qHTS assay to test for compound auto fluorescence at 590 nm (red) in HEK293 cells (AID 720679); conditions: red autofluorescence 540/590 nm; series mostly up to 91.3 µM; also: % is scaled to controls: 0 for no effect and ±100 for the full control effect
The source made the active and inactive calls. The call rests on the fitted dose curve; in most records, active means well fitted curve in the direction sought with a large enough effect in the repeat runs; inconclusive means weak or mixed curves; inactive means flat fitted curve, though single readings scatter.

>  <GIVEN_SMILES>
O=C(O)CC(=O)O

>  <fluorescence, % of fluorescent control>
inactive

$$$$
>  <GIVEN_SMILES>
CCc1ccc(O)c(C(C)(C)C)c1

>  <fluorescence, % of fluorescent control>
inactive

$$$$
>  <GIVEN_SMILES>
CCN(CC)c1ccc(N)cc1

>  <fluorescence, % of fluorescent control>
inactive

$$$$

---

assay: qHTS assay to identify small molecule agonists of the sonic hedgehog signaling (Shh) pathway - cell viability counter screen (AID 1259366); details: NIH/3T3 Gli1-Luc viability, CellTiter-Fluor, 24 h; series mostly up to 92.4 µM; also: % is scaled to controls: 0 for no effect and ±100 for the full control effect; nearly all actives have a fitted effect of over 50% in size
Inconclusive results are not listed. Activity calls are given as the source filed them. The call rests on the fitted dose curve; in most records, active means well fitted cell-killing curve with a large enough effect in the repeat runs; inconclusive means weak or mixed curves, or effect the other way; inactive means flat fitted curve, though single readings scatter.
EXPERIMENTAL_ENDPOINT: viability change, negative = cytotoxic

Record CCN1CCN(c2cc(-c3ccc(F)cc3)c3c(n2)CCCCCC3)CC1 , field viability change, negative = cytotoxic: -8.82% [at 19 µM] (inactive)

Record CCC(=O)CC(C)CC (stereo unspecified) , field viability change, negative = cytotoxic: 4% [at 0.349 µM] (inactive)

Record O=S(=O)(O)c1cc(S(=O)(=O)O)c2ccc3c(S(=O)(=O)O)cc(S(=O)(=O)O)c4ccc1c2c43 , field viability change, negative = cytotoxic: 1.66% [at 19 µM] (inactive)

Record C=C/C=C/C=C/CCCCC , field viability change, negative = cytotoxic: -4.32% [at 19 µM] (inactive)

Record O=S(O)O , field viability change, negative = cytotoxic: 2.93% [at 19 µM] (inactive)

Record N[C@@H](CSSC[C@H](N)C(=O)O)C(=O)O , field viability change, negative = cytotoxic: 13.4% [at 0.349 µM] (inactive)

---

experiment: qHTS RealTime-Glo MT Cell Viability Assay in HepG2 cells - 40 hour (AID 1224870); settings: RealTime-Glo luminescence; series mostly up to 76.8 µM; also: nearly all actives have a fitted effect of over 50% in size
Inconclusive results are not listed. Calls of active or inactive are those of the source. The call rests on the fitted dose curve; in most records, active means well fitted cell-killing curve with a large enough effect in the repeat runs; inconclusive means weak or mixed curves, or effect the other way; inactive means flat fitted curve, though single readings scatter.
Result category, one only: 1 = active, 0 = inactive

Which outcome did this test record for the molecule C/C=C/C=N/NC(=O)c1ccncc1 ?
0

Which outcome did this test record for the molecule CN(C)c1ccc(N=NS(=O)(=O)O)cc1 ?
0

Which outcome did this test record for the molecule C=CC(C)(CCC=C(C)C)OC(=O)/C=C/c1ccccc1 (configuration not stated) ?
0

Which outcome did this test record for the molecule CN(C)CCOC(c1ccccc1)c1ccccc1 (tested in a mixture with another compound) ?
0

Which outcome did this test record for the molecule O[C@@H](c1cc(C(F)(F)F)nc2c(C(F)(F)F)cccc12)[C@H]1CCCCN1 ?
1

Which outcome did this test record for the molecule O=C(O)CCn1c2c(c3ccccc31)C[C@H](NS(=O)(=O)c1ccc(F)cc1)CC2 ?
0

Which outcome did this test record for the molecule CCCCCCCCCCCCCC[n+]1ccccc1 ?
1

Which outcome did this test record for the molecule Nc1ccc2cc3ccc(N)cc3nc2c1 ?
1

Which outcome did this test record for the molecule CC(=O)O[C@@H]1C[C@@H]2CC[C@@]1(C)C2(C)C ?
0

Which outcome did this test record for the molecule COc1ccc(C#N)cc1 ?
0

Which outcome did this test record for the molecule CCCCC(CC)COC(=O)c1ccc(O)cc1 (configuration not stated) ?
0

Which outcome did this test record for the molecule CCN(CC)CCOC(=O)C1(C2CCCCC2)CCCCC1 ?
0

---

assay: qHTS RealTime-Glo MT Cell Viability Assay in HEK293 cells - 0 hour (AID 1224880); conditions: RealTime-Glo luminescence; series mostly up to 76.8 µM; also: top concentration of the series differs between compounds; % is scaled to controls: 0 for no effect and ±100 for the full control effect; nearly all actives have a fitted effect of over 45% in size
Records with an inconclusive call do not appear. The source made the active and inactive calls. The call rests on the fitted dose curve; in most records, active means well fitted cell-killing curve with a large enough effect in the repeat runs; inconclusive means weak or mixed curves, or effect the other way; inactive means flat fitted curve, though single readings scatter.
EXPERIMENTAL_ENDPOINT: activity change, negative = cytotoxicity

>  <COMPOUND>
CCC(C)c1cc([N+](=O)[O-])cc([N+](=O)[O-])c1OC(=O)OC(C)C (configuration not stated)

>  <activity change, negative = cytotoxicity>
inactive

$$$$
>  <COMPOUND>
C[C@]12CC[C@H]3C(=CCc4cc(O)ccc43)[C@@H]1CCC2=O

>  <activity change, negative = cytotoxicity>
inactive

$$$$
>  <COMPOUND>
CC(C)OC(=O)c1cc(C(=O)OC(C)C)cc([N+](=O)[O-])c1

>  <activity change, negative = cytotoxicity>
inactive

$$$$
>  <COMPOUND>
C[Si](C)(C)Cl

>  <activity change, negative = cytotoxicity>
inactive

$$$$
>  <COMPOUND>
Cc1cccc(C)n1

>  <activity change, negative = cytotoxicity>
inactive

$$$$

Read the next record carefully.
Record C[Si](C)O[Si](C)C , field activity change, negative = cytotoxicity: inactive

---

test: A CellTox Green Cytotoxicity Assay to monitor cytotoxicity in HEK293 cells - 8 hour (AID 1224884); conditions: CellTox Green fluorescence; series mostly up to 76.8 µM; also: nearly all actives have a fitted effect of over 35% in size
Results filed as inconclusive are left out. Active and inactive are the calls of the source. The call rests on the fitted dose curve; in most records, active means well fitted activation curve with a large enough effect in the repeat runs; inconclusive means weak or mixed curves; inactive means flat fitted curve, though single readings scatter.
Result category, one only: class 1 = active, class 0 = inactive

Which outcome did this test record for the molecule CC(C)(C)C1=CC(=O)C=C(C(C)(C)C)C1=O ?
class 0

Which outcome did this test record for the molecule Cc1c(C)n(Cc2ccccc2)c2ccc(C(=O)OCCN(C)C)cc12 ?
class 0

Which outcome did this test record for the molecule CC(C)(C)c1cc(/C=C2\SC(=N)NC2=O)cc(C(C)(C)C)c1O ?
class 0

Which outcome did this test record for the molecule COC(=O)CC(C)CCC=C(C)C (stereo not given) ?
class 0

Which outcome did this test record for the molecule CCC(C)(C)c1cc(O)c(C(C)(C)CC)cc1O ?
class 0

Which outcome did this test record for the molecule CC(=O)OC1CCCCC1 ?
class 0

Which outcome did this test record for the molecule O=C1c2c(O)ccc(O)c2C(=O)c2c(NCCNCCO)ccc(NCCNCCO)c21 ?
class 0

Which outcome did this test record for the molecule CCCCCCCOC(=O)c1ccc(O)cc1 ?
class 0

Which outcome did this test record for the molecule CCCCOC(=O)C(C)CC (stereo not given) ?
class 0

Which outcome did this test record for the molecule Brc1ccccn1 ?
class 0

Which outcome did this test record for the molecule c1cc(OCC2CO2)cc(OCC2CO2)c1 (stereo not given) ?
class 0

Which outcome did this test record for the molecule OCCN1CN(CCO)CN(CCO)C1 ?
class 0

Which outcome did this test record for the molecule c1cc2c3c(c1)ccc1cccc(c13)C2 ?
class 1

Which outcome did this test record for the molecule COC(=O)[C@]1(C)CCC[C@@]2(C)[C@H]1CC=C1C=C(C(C)C)CC[C@@H]12 ?
class 1

Which outcome did this test record for the molecule CCOC(=O)C1=C(C)NC(C)=C(C(=O)OCC)C1c1ccccc1/C=C/C(=O)OC(C)(C)C ?
class 0

Which outcome did this test record for the molecule CCN(CC)CCSC(=O)C(c1ccccc1)c1ccccc1 ?
class 0

Which outcome did this test record for the molecule Nc1ncnc2c1ncn2[C@@H]1O[C@H](COP(=O)(O)O)[C@@H](O)[C@H]1O ?
class 0

Which outcome did this test record for the molecule C1CC(COCC2CO2)CCC1COCC1CO1 (stereo not given) ?
class 0

Which outcome did this test record for the molecule CSc1c(Cl)c(Cl)c(Cl)c(Cl)c1Cl ?
class 0

Which outcome did this test record for the molecule CCN(CC)CCOC(=O)C1(C2CCCCC2)CCCCC1 ?
class 0

Which outcome did this test record for the molecule CN(C)c1ccc(N=NS(=O)(=O)O)cc1 ?
class 0

Which outcome did this test record for the molecule NCCCC(O)(P(=O)(O)O)P(=O)(O)O ?
class 0

Which outcome did this test record for the molecule Oc1ccc(-c2ccc(O)cc2)cc1 ?
class 0

Which outcome did this test record for the molecule CCCCCCCCCCc1ccccc1 ?
class 0

Which outcome did this test record for the molecule CCN(CC)c1cccc(C)c1 ?
class 0

Which outcome did this test record for the molecule CCOC(=O)[C@@](C)(N)Cc1ccc(O)c(O)c1 ?
class 0

Which outcome did this test record for the molecule CN1[C@@H]2CC[C@@H]1CC(OC(=O)C(CO)c1ccccc1)C2 (stereo not given in full) ?
class 0

Which outcome did this test record for the molecule O=Nc1ccc(NO)cc1 ?
class 0

Which outcome did this test record for the molecule Cc1cc(=O)[nH]c(=O)[nH]1 ?
class 0

Which outcome did this test record for the molecule CCCCCCS ?
class 0

Which outcome did this test record for the molecule CCOC(=O)N1CCC(=C2c3ccc(Cl)cc3CCc3cccnc32)CC1 ?
class 0

Which outcome did this test record for the molecule Clc1cc(Cl)c(-c2c(Cl)c(Cl)cc(Cl)c2Cl)cc1Cl ?
class 0

Which outcome did this test record for the molecule CC(COC(=O)c1ccccc1)OC(=O)c1ccccc1 (stereo not given) ?
class 0

Which outcome did this test record for the molecule CCCCC(CC)COC(=O)c1ccc(O)cc1 (stereo not given) ?
class 1

Which outcome did this test record for the molecule CC(C)(c1cc(Br)c(O)c(Br)c1)c1cc(Br)c(O)c(Br)c1 ?
class 0

Which outcome did this test record for the molecule CCCCOc1ccc(C(=O)CCN2CCCCC2)cc1 ?
class 0

Which outcome did this test record for the molecule C=CC(C)C#N (stereo not given) ?
class 0

Which outcome did this test record for the molecule O=C1NCN(c2ccccc2)C12CCN(CCCC(c1ccc(F)cc1)c1ccc(F)cc1)CC2 ?
class 0

Which outcome did this test record for the molecule ClC/C=C\CCl ?
class 0

Which outcome did this test record for the molecule Clc1nc2ccccc2s1 ?
class 0

Which outcome did this test record for the molecule CC1=C(/C=C/C(C)=C/C=C/C(C)=C/C(=O)Nc2ccc(O)cc2)C(C)(C)CCC1 ?
class 0

Which outcome did this test record for the molecule CCCCCCCC/C=C\CCCCCCCC(=O)OCCOC(=O)CCCCCCC/C=C\CCCCCCCC ?
class 0

Which outcome did this test record for the molecule O=Cc1ccc(F)cc1 ?
class 0

Which outcome did this test record for the molecule CC(NCCC(c1ccccc1)c1ccccc1)c1ccccc1 (stereo not given) ?
class 0

Which outcome did this test record for the molecule Clc1ccccc1CN1CCc2sccc2C1 ?
class 0

Which outcome did this test record for the molecule COc1ccc(-n2nc(CCC(=O)N(C)O)cc2-c2ccc(Cl)cc2)cc1 ?
class 0

Which outcome did this test record for the molecule C=C(C)CCCC ?
class 0

Which outcome did this test record for the molecule CC(C)N=C(N)/N=C(\N)Nc1ccc(Cl)cc1 ?
class 0

Which outcome did this test record for the molecule CNC(=S)NN ?
class 0

Which outcome did this test record for the molecule SCCCCCCCCS ?
class 0

Which outcome did this test record for the molecule CC1CNCC(C)O1 (stereo not given) ?
class 0

Which outcome did this test record for the molecule O=C1NC2CCCCN2C12CCN(CCCN1c3ccccc3CCc3ccc(Cl)cc31)CC2 (stereo not given) ?
class 0

Which outcome did this test record for the molecule CCOC(=O)CC(C)O (stereo not given) ?
class 0

Which outcome did this test record for the molecule CCCOc1sc(C(=O)N2CCC(c3cc(CN)ccc3F)CC2)c(C)c1Br ?
class 1

Which outcome did this test record for the molecule CCC1(c2cnc[nH]2)Cc2ccccc2C1 ?
class 0

Data provenance: PubChem BioAssay (Tox21)
